All figures here come from patent US20210254056A1.

Test system: hepatocytes
Test: RNA-seq of hepatocytes treated with Phase III failure compounds
Param threshold (-0.06) applies to RNA-seq results: CYP2D6 expression; output yes when value >= threshold, no when value < threshold.

CCOC(=O)N1c2ccc(C(F)(F)F)cc2[C@@H](N(Cc2cc(C(F)(F)F)cc(C(F)(F)F)c2)C(=O)OC)C[C@H]1CC; yes
Cn1cc(C2=C(c3cn(C4CCN(Cc5ccccn5)CC4)c4ccccc34)C(=O)NC2=O)c2ccccc21; no
Cn1cnc2c(F)c(Nc3ccc(Br)cc3Cl)c(C(=O)NOCCO)cc21; yes
NC(=O)c1ccc(I)c([N+](=O)[O-])c1; yes
COc1cc2c(Oc3ccc4[nH]c(C)cc4c3F)ncnc2cc1OCCCN1CCCC1; yes
C=CCNC1=C2C[C@@H](C)C[C@H](OC)[C@H](O)[C@@H](C)/C=C(\C)[C@H](OC(N)=O)[C@@H](OC)/C=C\C=C(/C)C(=O)NC(=CC1=O)C2=O; yes
COc1cc2nccc(Oc3ccc(NC(=O)Nc4cc(C)on4)c(Cl)c3)c2cc1OC; no

* * *

Test system: hepatocytes
Test: RNA-seq of hepatocytes treated with Phase III failure compounds
Conditions: gene ANPEP; hepatocytes
Field 'label' (enum: Condition met / Condition not met). Set to Condition met when RNA-seq results: ANPEP expression is strictly under -0.06; else Condition not met.

COc1cc2c(Oc3ccc4[nH]c(C)cc4c3F)ncnc2cc1OCCCN1CCCC1; Condition met
CCOC(=O)N1c2ccc(C(F)(F)F)cc2[C@@H](N(Cc2cc(C(F)(F)F)cc(C(F)(F)F)c2)C(=O)OC)C[C@H]1CC; Condition met
NC(=O)c1ccc(I)c([N+](=O)[O-])c1; Condition met
CCN(CC)CCN(Cc1ccc(-c2ccc(C(F)(F)F)cc2)cc1)C(=O)Cn1c(SCc2ccc(F)cc2)nc(=O)c2c1CCC2; Condition not met
COc1cc(Nc2ncc(F)c(Nc3ccc4c(n3)N(COP(=O)(O)O)C(=O)C(C)(C)O4)n2)cc(OC)c1OC; Condition not met
O=P(O)(NCCCl)NCCCl [Palifosfamide]; Condition met
Cn1cc(C2=C(c3cn(C4CCN(Cc5ccccn5)CC4)c4ccccc34)C(=O)NC2=O)c2ccccc21; Condition met
Cn1cnc2c(F)c(Nc3ccc(Br)cc3Cl)c(C(=O)NOCCO)cc21; Condition not met
CCC(CC)[C@H](NC(C)=O)[C@@H]1[C@H](O)[C@@H](C(=O)O)C[C@H]1NC(=N)N.O.O.O [peramivir (trihydrate), peramivir]; Condition not met
COc1cc2nccc(Oc3ccc(NC(=O)Nc4cc(C)on4)c(Cl)c3)c2cc1OC; Condition met

* * *

Tested on: hepatocytes
Assay: RNA-seq of hepatocytes treated with Phase III failure compounds
Settings: gene GATM; hepatocytes
Param threshold (-0.2) applies to RNA-seq results: GATM expression; output Satisfied when value >= threshold, Not satisfied when value < threshold.

COc1cc2c(Oc3ccc4[nH]c(C)cc4c3F)ncnc2cc1OCCCN1CCCC1; Not satisfied
O=P(O)(NCCCl)NCCCl [Palifosfamide]; Not satisfied
CCC(CC)[C@H](NC(C)=O)[C@@H]1[C@H](O)[C@@H](C(=O)O)C[C@H]1NC(=N)N.O.O.O [peramivir (trihydrate), peramivir]; Not satisfied
NC(=O)c1ccc(I)c([N+](=O)[O-])c1; Satisfied
COc1cc2nccc(Oc3ccc(NC(=O)Nc4cc(C)on4)c(Cl)c3)c2cc1OC; Satisfied
COc1cc(Nc2ncc(F)c(Nc3ccc4c(n3)N(COP(=O)(O)O)C(=O)C(C)(C)O4)n2)cc(OC)c1OC; Satisfied
CCOC(=O)N1c2ccc(C(F)(F)F)cc2[C@@H](N(Cc2cc(C(F)(F)F)cc(C(F)(F)F)c2)C(=O)OC)C[C@H]1CC; Not satisfied
Cn1cc(C2=C(c3cn(C4CCN(Cc5ccccn5)CC4)c4ccccc34)C(=O)NC2=O)c2ccccc21; Satisfied
Cn1cnc2c(F)c(Nc3ccc(Br)cc3Cl)c(C(=O)NOCCO)cc21; Not satisfied
C=CCNC1=C2C[C@@H](C)C[C@H](OC)[C@H](O)[C@@H](C)/C=C(\C)[C@H](OC(N)=O)[C@@H](OC)/C=C\C=C(/C)C(=O)NC(=CC1=O)C2=O; Not satisfied
CCN(CC)CCN(Cc1ccc(-c2ccc(C(F)(F)F)cc2)cc1)C(=O)Cn1c(SCc2ccc(F)cc2)nc(=O)c2c1CCC2; Not satisfied
